biological target: GSNOR (GSNO Reductase) (Homo sapiens)
Sequence (P11766 whole entry): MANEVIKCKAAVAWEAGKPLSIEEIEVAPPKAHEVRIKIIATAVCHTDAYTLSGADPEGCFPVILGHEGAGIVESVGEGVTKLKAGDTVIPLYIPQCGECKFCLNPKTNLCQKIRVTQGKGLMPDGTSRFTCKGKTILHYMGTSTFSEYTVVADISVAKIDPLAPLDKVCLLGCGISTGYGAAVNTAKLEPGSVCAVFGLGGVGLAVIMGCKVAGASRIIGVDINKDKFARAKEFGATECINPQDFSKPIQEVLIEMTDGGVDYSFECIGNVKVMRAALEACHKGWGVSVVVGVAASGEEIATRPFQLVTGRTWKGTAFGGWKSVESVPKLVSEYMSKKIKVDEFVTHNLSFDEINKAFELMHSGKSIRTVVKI
In this section we review reported IC50 values for a set of compounds.

Ask: Enter recorded IC50 with GSNOR (GSNO Reductase) (Homo sapiens) for `Cc1nccn1-c1ccc(-c2ccc(CCC(=O)O)n2-c2ccc(O)cc2)s1` here.
Reply: < 1000 nM

Ask: Enter recorded IC50 with GSNOR (GSNO Reductase) (Homo sapiens) for `COc1ccc(-c2ccc(CCC(=O)O)n2-c2ccc(O)c(F)c2)cc1` here.
Reply: < 5000 nM

Ask: Enter recorded IC50 with GSNOR (GSNO Reductase) (Homo sapiens) for `Cc1cc(C(N)=O)ccc1-n1c(CCC(=O)O)ccc1-c1cc(-n2ccnc2)cs1` here.
Reply: < 1000 nM

Ask: Enter recorded IC50 with GSNOR (GSNO Reductase) (Homo sapiens) for `Cc1cc(C(N)=O)ccc1-n1c(CCC(=O)O)ccc1-c1ccc(Cl)cc1C(N)=O` here.
Reply: < 1000 nM

The values you see were collected from patent US8691816B2.
